- assay.details: Oral bioavailability in CD1 mouse at 5 mg/kg administered as bolus dose
- Assay type: ADME, organism-based
- study.conditions: in vivo

{"structure.as.smiles": "COc1nn(C)cc1C(=O)N[S@@]1(=O)=NC(=O)c2ccc3c(c2)N(C[C@@H]2CCO[C@H]2[C@@H](OC)/C(F)=C/C[C@H](C)C1)C[C@@]1(CCCc2cc(Cl)ccc21)CO3", "bioavailability (%)": 78}

----------
- assay.details: Thermodynamic (equilibrium) solubility of the compound measured after 3 days agitation in pH 7 buffer by LC-MS/MS analysis
- Assay type: physicochemical
- study.conditions: time 3 day, read-out: Therm_solubility
The threshold is inclusive: solubility thermodynamic at 72 h of exactly 10 µM counts as Criterion met; values below receive Criterion not met.

{"structure.as.smiles": "CO[C@@]1(CN2CCN3CCOC[C@@H]3C2)/C(F)=C/C[C@H](C)[C@@H](C)S(=O)(=O)NC(=O)c2ccc3c(c2)N(C[C@@H]2CCO[C@H]21)C[C@@]1(CCCc2cc(Cl)ccc21)CO3", "category.label": "Criterion met"}
{"structure.as.smiles": "C[C@@H]1[C@@H](C)C/C=C(\\F)[C@@](O)(CC(=O)N(C)C)[C@@H]2OCC[C@H]2CN2C[C@@]3(CCCc4cc(Cl)ccc43)COc3ccc(cc32)C(=O)NS1(=O)=O", "category.label": "Criterion not met"}
{"structure.as.smiles": "C[C@@H]1[C@@H](C)C/C=C(\\F)[C@@](O)(CC#N)[C@@H]2OCC[C@H]2CN2C[C@@]3(CCCc4cc(Cl)ccc43)COc3ccc(cc32)C(=O)NS1(=O)=O", "category.label": "Criterion not met"}
{"structure.as.smiles": "CO[C@@H]1/C(F)=C/C[C@H](C)[C@@H](C)S(=O)(=O)NC(=O)c2ccc3c(c2)N(C[C@@H]2CCO[C@H]21)C[C@@]1(CCCc2cc(Cl)ccc21)CO3", "category.label": "Criterion met"}
{"structure.as.smiles": "COc1nn(C)cc1C(=O)N[S@]1(=O)=NC(=O)c2ccc3c(c2)N(C[C@@H]2CCO[C@H]2[C@@](CN2CCN4CCOC[C@@H]4C2)(OC)/C(F)=C/C[C@H](C)C1)C[C@@]1(CCCc2cc(Cl)ccc21)CO3", "category.label": "Criterion met"}
{"structure.as.smiles": "C[C@@H]1[C@@H](C)C/C=C/[C@H](OCCN2CCOCC2)[C@@H]2OCC[C@H]2CN2C[C@@]3(CCCc4cc(Cl)ccc43)COc3ccc(cc32)C(=O)NS1(=O)=O", "category.label": "Criterion not met"}
{"structure.as.smiles": "COc1nn(C)cc1C(=O)N[S@@]1(=O)=NC(=O)c2ccc3c(c2)N(C[C@@H]2CCO[C@H]2[C@H](OC)/C(F)=C/C[C@H](C)C1)C[C@@]1(CCCc2cc(Cl)ccc21)CO3", "category.label": "Criterion met"}
{"structure.as.smiles": "COc1nn(C)cc1C(=O)N[S@@]1(=O)=NC(=O)c2ccc3c(c2)N(C[C@@H]2CCO[C@H]2[C@@H](OC)/C(F)=C/C[C@H](C)C1)C[C@@]1(CCCc2cc(Cl)ccc21)CO3", "category.label": "Criterion met"}
{"structure.as.smiles": "CO[C@]1(CN2CCN3CCOC[C@@H]3C2)/C(F)=C/C[C@H](C)[C@@H](C)S(=O)(=O)NC(=O)c2ccc3c(c2)N(C[C@@H]2CCO[C@H]21)C[C@@]1(CCCc2cc(Cl)ccc21)CO3", "category.label": "Criterion not met"}
{"structure.as.smiles": "COc1nn(C)cc1C(=O)N[S@]1(=O)=NC(=O)c2ccc3c(c2)N(C[C@@H]2CCO[C@H]2[C@H](OC)/C(F)=C/C[C@H](C)C1)C[C@@]1(CCCc2cc(Cl)ccc21)CO3", "category.label": "Criterion not met"}

Ref: ChEMBL document CHEMBL5380869
